Each recorded value in this set is attributed to ChEMBL document CHEMBL1201862.

assayed system: Corticotropin-releasing factor receptor 2/Corticotropin-releasing factor-binding protein (Homo sapiens, UniProt P24387+Q13324)
Sequence (Q13324 whole entry): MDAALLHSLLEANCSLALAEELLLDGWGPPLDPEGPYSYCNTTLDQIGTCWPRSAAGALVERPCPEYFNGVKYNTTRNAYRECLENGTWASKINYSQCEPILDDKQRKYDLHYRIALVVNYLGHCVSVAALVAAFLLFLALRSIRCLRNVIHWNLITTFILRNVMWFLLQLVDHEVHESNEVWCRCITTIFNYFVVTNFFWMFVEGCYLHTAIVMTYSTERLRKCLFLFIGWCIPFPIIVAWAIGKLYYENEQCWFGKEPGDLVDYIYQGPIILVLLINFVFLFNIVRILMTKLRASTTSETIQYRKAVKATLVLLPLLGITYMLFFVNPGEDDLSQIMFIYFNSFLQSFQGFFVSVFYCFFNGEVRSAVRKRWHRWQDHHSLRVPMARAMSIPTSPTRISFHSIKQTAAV
Sequence (P24387 whole entry): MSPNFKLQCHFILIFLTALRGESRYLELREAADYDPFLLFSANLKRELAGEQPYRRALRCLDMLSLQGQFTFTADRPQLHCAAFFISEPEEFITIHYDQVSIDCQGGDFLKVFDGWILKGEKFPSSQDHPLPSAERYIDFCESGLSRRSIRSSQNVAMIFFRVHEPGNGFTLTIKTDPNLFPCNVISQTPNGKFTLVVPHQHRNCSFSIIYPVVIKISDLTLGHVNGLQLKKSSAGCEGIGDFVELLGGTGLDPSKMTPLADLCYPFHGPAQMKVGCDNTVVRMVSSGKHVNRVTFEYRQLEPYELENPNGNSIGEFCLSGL
test description: activators of CRF receptor 2 with binding protein – uHTS hits, confirmation (AID 602473)
Assay type: functional
condition: read-out: EC50_Mean
The source made the active and inactive calls.
Can you answer with just one of these options? active, inactive

Example results:
COc1ccc(C2CC(c3ccc(Br)cc3)=NN2C(=O)CCC(=O)O)cc1OC (stereo not given); inactive
N#CN=C(Nc1cccc(F)c1)SCc1ccccc1F; inactive
O=C(O)C1=C[C@@H](c2ccc(Br)cc2)C[C@@H](OCc2ccc(CO)cc2)O1; inactive
O=C(O)CCC(=O)Nc1ccc(Br)c(Cl)c1; inactive
Cn1c(CCNC(=O)c2ccco2)nc2cc(NC(=O)c3ccco3)ccc21; inactive
COc1ccc(-c2cccc(NS(=O)(=O)c3cccc([N+](=O)[O-])c3)c2)nn1; inactive
c1ccc2c(c1)nnn2-c1ncnc2sc3c(c12)CCCC3; inactive
O=C1Cc2ccccc2Sc2ccc(O)cc21; inactive
CSc1c(C#N)sc(=S)n1-c1ccc(C)cc1; inactive
O=C(CSc1ccccc1)NN1C(=O)c2ccccc2C1=O; inactive

Returns: the outcome recorded for "O=C(O)c1ccccc1NC(=O)c1ccccc1Nc1ccccc1" in this assay.
inactive

For this molecule, state the assay outcome: "Cn1cc(S(=O)(=O)Nc2ccc(Br)cc2F)c(=O)n(C)c1=O"
inactive

Fill in: this test's call for "N#Cc1c(-c2ccccc2)cc(-c2ccccc2)nc1SCC(=O)NCC(=O)O" is ___
active

# lookup: test call for CC1(C)CC2CC(C)(CN2/C=C2/CCCCC2=O)C1 (stereo not given)
inactive

# fetch the recorded call for COC(=O)C12CCc3c(ccc4cc(OC)ccc34)C1=CC(=O)C2 (stereo not given) here
inactive

###

assayed system: DNA dC->dU-editing enzyme APOBEC-3A (Homo sapiens)
Sequence (P31941 whole entry): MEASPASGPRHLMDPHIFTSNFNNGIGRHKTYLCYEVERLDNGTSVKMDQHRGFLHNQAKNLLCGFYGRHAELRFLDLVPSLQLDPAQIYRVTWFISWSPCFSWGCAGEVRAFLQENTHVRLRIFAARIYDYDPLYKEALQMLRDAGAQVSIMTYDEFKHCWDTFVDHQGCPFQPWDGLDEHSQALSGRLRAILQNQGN
test description: Dose Response confirmation of small molecule APOBEC3A DNA Deaminase Inhibitors via a fluorescence-based single-stranded DNA deaminase assay. [Related pubchem assays (depositor defined):AID493011, AID493024]
Type: functional
Calls of active or inactive are those of the source.
endpoint label: IC50

Okay, here is my list. What is IC50 for each of these?
1. CCOc1ccccc1OCC(=O)Nc1cc(S(=O)(=O)N2CCCCC2)ccc1N1CCN(CC)CC1
2. CCOC(=O)c1ccc2c(c1)N(CC)C(=O)c1ccccc1S2
3. O=C(Nc1nc2c(s1)CCCC2)C1CCCN1C(=O)c1cccs1 (stereo unspecified)
4. Cc1ccc(C)c(OCCC(=O)OCC(=O)N2c3ccccc3NC(=O)C2(C)C)c1
5. CCCCn1nc(NC(=O)COC)c2cc3ccc(C)cc3nc21
6. CN(CC(=O)Nc1c(Cl)cccc1Cl)C(=O)c1cccc(-n2cccc2)c1

1. 5.85 µM (active)
2. 2.24 µM (active)
3. 10 µM (active)
4. 11 µM (active)
5. 3.49 µM (active)
6. 13.9 µM (active)

###

Field: IC50. Provide a value for each of the compounds that follow.
assayed system: Leucine aminopeptidase (Plasmodium falciparum 3D7, UniProt Q8IL11)
Sequence (Q8IL11 whole entry): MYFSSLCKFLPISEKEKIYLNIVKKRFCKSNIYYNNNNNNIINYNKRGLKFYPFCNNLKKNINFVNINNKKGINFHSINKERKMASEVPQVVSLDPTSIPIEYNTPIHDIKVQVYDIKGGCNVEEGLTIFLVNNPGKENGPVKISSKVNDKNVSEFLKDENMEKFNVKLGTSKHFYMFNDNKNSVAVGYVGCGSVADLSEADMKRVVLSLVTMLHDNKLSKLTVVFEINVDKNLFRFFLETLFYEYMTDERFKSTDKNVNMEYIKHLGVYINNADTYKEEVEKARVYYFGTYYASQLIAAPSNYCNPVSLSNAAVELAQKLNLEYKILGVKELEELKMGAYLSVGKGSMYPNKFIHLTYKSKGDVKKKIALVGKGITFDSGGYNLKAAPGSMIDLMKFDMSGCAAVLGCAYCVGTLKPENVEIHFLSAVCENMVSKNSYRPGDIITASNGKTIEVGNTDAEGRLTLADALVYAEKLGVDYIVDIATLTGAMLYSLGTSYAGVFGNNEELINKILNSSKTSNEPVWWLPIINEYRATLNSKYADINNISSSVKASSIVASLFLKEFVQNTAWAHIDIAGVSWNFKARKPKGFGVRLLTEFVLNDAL
test description: P. falciparum M17LAP inhibitors, primary screen, biochemical, fluorogenic H-Leu-NHMec substrate, 1536-well (AID 1619)
Type: functional
Activity calls are given as the source filed them.

These solved cases illustrate the format of a correct answer.
COc1cc(/C=N/Nc2ccc(Cl)c(C(=O)O)c2)ccc1OC(=O)c1ccco1; 48.8 µM (active)
O=C(CSc1ccccc1)NN1C(=O)c2ccccc2C1=O; 54.4 µM (active)
Nc1nc2c(s1)C(=O)CC(c1ccccc1)C2 (centres undefined); 58.8 µM (active)
O=C(c1cnn(C(=O)c2ccccc2)c1)c1ccccc1O; 72.6 µM (active)

List the reported IC50 of each compound below.
1. Cc1c(Nc2nc3ccccc3nc2NS(=O)(=O)c2ccccc2)c(=O)n(-c2ccccc2)n1C
2. COc1ccc(NC(=S)NNc2ccc(S(=O)(=O)Nc3ccccc3C(=O)O)cc2[N+](=O)[O-])cc1
3. CC(=O)c1ccc(OCCCC(=O)n2nnc3ccccc32)cc1
4. Cc1ccc(NC(=O)CSc2nnc[nH]2)cc1
5. COc1ccc(OC)c(NC(=O)[C@H]2CC=CC[C@H]2C(=O)O)c1

1: 68.1 µM (active); 2: 4.33 µM (active); 3: 61.9 µM (active); 4: 34 µM (active); 5: 18.5 µM (active)
